- Test system: Vero E6 infected with SARS-CoV-2
- Assay Protocol: inhibition of SARS-CoV-2 cytopathic effect; higher = more antiviral protection, active = above 15
- Test Context: 1 nM; 48 h
inhibition of SARS-CoV-2 cytopathic effect values by entry
Value Kind: inhibition of SARS-CoV-2 cytopathic effect

{"Compound": "C[C@H](NC(=O)CNC(=O)c1cccc(Cl)c1)c1ccccc1", "Recorded Value": "-3.1% (inactive)"}
{"Compound": "OC[C@H]1O[C@@H](O[C@@H]2[C@H](O)[C@@H](O)[C@H](O[C@H]3[C@H](O)[C@@H](O)C(O)O[C@@H]3CO)O[C@@H]2CO)[C@H](O)[C@@H](O)[C@H]1O (stereo not given in full)", "Recorded Value": "-1.88% (inactive)"}
{"Compound": "O=P(O)(O)C(O)(Cc1cnc2ccccn12)P(=O)(O)O", "Recorded Value": "-2.81% (inactive)"}
{"Compound": "CCCn1c(=O)c(C)cn2nc(N)nc12", "Recorded Value": "3.43% (inactive)"}
{"Compound": "CC(=O)OC[C@H]1O[C@@](COC(C)=O)(O[C@H]2O[C@H](COC(C)=O)[C@@H](OC(C)=O)[C@H](OC(C)=O)[C@H]2OC(C)=O)[C@@H](OC(C)=O)[C@@H]1OC(C)=O [sucrose-octaacetate]", "Recorded Value": "0.66% (inactive)"}
{"Compound": "Cc1ncc([N+](=O)[O-])n1CC(C)O (stereo not given)", "Recorded Value": "-4.41% (inactive)"}
{"Compound": "CCCCCCCCCCCCCCC[C@@H](O)[C@@H](N)CO", "Recorded Value": "3.01% (inactive)"}
{"Compound": "COc1ccccc1Oc1c(NS(=O)(=O)c2ccc(C)cn2)nc(-c2ccncc2)nc1OC", "Recorded Value": "1.47% (inactive)"}
{"Compound": "COc1ccc(CNC(=O)/C=C/c2ccc3[nH]cc(CCN(C)C)c3c2)cc1", "Recorded Value": "2.58% (inactive)"}
{"Compound": "COc1ccc(C(C)=O)c(O)c1", "Recorded Value": "1.08% (inactive)"}

====

- Test system: Vero E6 infected with SARS-CoV-2
- Assay Protocol: inhibition of SARS-CoV-2 cytopathic effect; higher = more antiviral protection, active = above 15
- Test Context: 10000 nM; 48 h
Value Kind: inhibition of SARS-CoV-2 cytopathic effect (%)

{"Molecule": "C#CCN(C)[C@H](C)Cc1ccccc1 [selegiline]", "System Name": "Vero E6 infected with SARS-CoV-2", "Recorded Value": -0.75}
{"Molecule": "CC(C)(C)c1cc(C=C(C#N)C#N)cc(C(C)(C)C)c1O [tyrphostin-A9]", "System Name": "Vero E6 infected with SARS-CoV-2", "Recorded Value": 6.42}
{"Molecule": "C[C@]12CCC(=O)C=C1CC[C@@H]1[C@@H]2[C@@H](O)C[C@@]2(C)[C@H]1CC[C@]2(O)C(=O)CO [hydrocortisone]", "System Name": "Vero E6 infected with SARS-CoV-2", "Recorded Value": -3.51}

====

- Test system: Vero E6 infected with SARS-CoV-2
- Assay Protocol: inhibition of SARS-CoV-2 cytopathic effect; higher = more antiviral protection, active = above 15
- Test Context: 100 nM; 48 h
Value Kind: inhibition of SARS-CoV-2 cytopathic effect (%)

{"Smiles Record": "CCOC(=O)c1ccc(C#Cc2ccc3c(c2)C(C)(C)CCS3)nc1", "Recorded Value": 1.7}
{"Smiles Record": "Nc1ccc(C(=O)Nc2cccc(-c3nc(N4CCOCC4)c4oc5ncccc5c4n3)c2)cn1", "Recorded Value": -2.43}
{"Smiles Record": "CC(C)(C)NC(=O)[C@@H]1CN(Cc2cccnc2)CCN1C[C@@H](O)C[C@@H](Cc1ccccc1)C(=O)N[C@H]1c2ccccc2C[C@H]1O", "Recorded Value": -9.09}
